So I've got a bunch of compounds here, and I need their inhibition values.
Assayed System: 72 kDa type IV collagenase (Homo sapiens)
Protocol: Inhibition of MMP2 (unknown origin) at 10 uM
One number for each entry, in %.

A selection of reference data follows.
Compound	inhibition / %
O=C(NO)C1(C[S+]([O-])c2ccc(C#Cc3ccc(CN4CCOCC4)cc3)cc2)CCOCC1 (racemic)	97
C[C@@H]1CN(Cc2ccc(C#Cc3ccc(OCC4(C(=O)NO)CCOCC4)cc3)cc2)C[C@H](C)O1	92

Give inhibition for each listed item.
1. O=C(NO)C1(COc2ccc(C#Cc3ccc(CN4CCN(CCn5ccnc5)CC4)cc3)cc2)CCOCC1
2. O=C(NO)C1(COc2ccc(C#Cc3ccc(CN4CCOCC4)cc3)cc2)CCOCC1

Result string:
[93, 94]

Every entry's value here was drawn from ChEMBL document CHEMBL3352564.
